Hello, the source for this data is ChEMBL document CHEMBL1961873, in case you need it.

target: Non-receptor tyrosine-protein kinase TYK2 (Homo sapiens); conditions: at 1 µM;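 further: values are mean percent inhibition of TYK2 kinase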
Readout: inhibition (%)
Entry rule: numbers only, all in %.

chemical_structure=CS(=O)(=O)Nc1ccc(-c2cc(-c3ccccc3)cc(C(N)=O)c2N)cc1 value_observed=-2.96

Problem: Could you tell me which inhibition is on file for CNC(=O)c1cncc(/C=C/c2ccccc2C)c1 ?
Result: -3.23

Problem: Next record, please: CS(=O)(=O)CCNCc1ccc(-c2ccc3ncnc(Nc4ccc(OCc5ccccc5)cc4)c3c2)o1
Result: -2.79

Problem: Next record, please: FC(F)(F)CNc1nccc(-c2cnn3ncccc23)n1
Result: -2.6

Problem: Next record, please: Cc1c2ccc(N(C)c3ccnc(Nc4cccc(S(N)(=O)=O)c4)n3)cc2nn1C
Result: -3.19
